The measurements presented in this section are drawn from patent US8846698B2.

Biological target: TRKA (Homo sapiens (Human), UniProt P04629)
Sequence (P04629 441-796): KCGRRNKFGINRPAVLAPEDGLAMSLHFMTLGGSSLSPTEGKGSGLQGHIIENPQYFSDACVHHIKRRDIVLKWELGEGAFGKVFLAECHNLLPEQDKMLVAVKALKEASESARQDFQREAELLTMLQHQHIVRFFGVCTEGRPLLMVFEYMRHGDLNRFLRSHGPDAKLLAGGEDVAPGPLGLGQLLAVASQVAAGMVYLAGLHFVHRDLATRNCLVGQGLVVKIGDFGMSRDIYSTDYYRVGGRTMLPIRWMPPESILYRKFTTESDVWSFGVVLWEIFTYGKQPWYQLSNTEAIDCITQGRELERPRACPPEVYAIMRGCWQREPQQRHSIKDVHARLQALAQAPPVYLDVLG
Test: Isolated TRK enzyme assay (HTRF KinEASE-TK), TRKA
Type: biochemical
Conditions: read-out: Trka enzyme (IC50)
Structures can show the parent of a compound that is named as a salt.
outcomeMeasure: IC50 (nM)

a = CCn1cc(C(=O)Nc2cncc(C(=O)c3cn(C(C)C)c4ncncc34)c2)cn1 [Example 433]
b = CC(C)n1cc(C(=O)c2cncc(NC(=O)Cc3ncccn3)c2)c2cncnc21 [Example 165]
c = CC(C)(C)n1cc(C(=O)c2cncc(NC(=O)Cc3coc(C4CC4)n3)c2)c2cncnc21 [Example 199]
d = CC(C)(CO)n1cc(C(=O)c2cncc(NC(=O)Cn3cc4ccccc4n3)c2)c2cnc(N)nc21 [Example 553]
Exam item: Arrange the 4 molecules from largest to smallest IC50. API: response body holds the labels in the requested order.
Marked response: b, a, c, d
(b: 3400 nM, a: 246 nM, c: 22.1 nM, d: 4.4 nM)

I = C[C@@H](CO)n1cc(C(=O)c2cncc(NC(=O)Cc3nc4ccccc4[nH]3)c2)c2cncnc21 [Example 533]
II = CC(C)n1cc(C(=O)c2cncc(NC(=O)Cc3cccc(CN4CCC4)c3)c2)c2cncnc21 [Example 266, formate salt]
Exam item: Pick one: I or II . Which has the bigger IC50 number? Which one? Tell me its label.
Marked response: II
(II: 2950 nM, I: 31.3 nM)

A = CC(C)n1cc(C(=O)c2cncc(NC(=O)c3ccc(OC(F)(F)F)cc3)c2)c2cncnc21 [Example 346]
B = CCOc1ncc(C(=O)c2cn(C(C)C)c3ncncc23)cc1NC(=O)Cn1nc(C(F)(F)F)cc1C [Example 519]
Exam item: Please let me know which one, A or B , has a lower measured IC50 value. Which one? Tell me its label.
Marked response: B
(B: 47.9 nM, A: 253 nM)

====

Target: UniProt:P04629
Test: Isolated TRK enzyme assay (HTRF KinEASE-TK), TRKA
Assay type: biochemical
Conditions: isolated TRKA enzyme; read-out: TrkA enzyme potency
outcomeMeasure: IC50 (nM)

a = Cc1cc(C(F)(F)F)nn1CC(=O)Nc1cncc(C(=O)c2cn(C(C)(C)CO)c3ncncc23)c1
b = CC(C)(CO)n1cc(C(=O)c2cncc(NC(=O)Cc3ccc(F)cn3)c2)c2cnc(N)nc21
Exam item: Please let me know which one, a or b , has a lower measured IC50 value. Which one? Tell me its label.
Marked response: a
(a: 3.5 nM, b: 7.8 nM)

1 = CC(CO)n1cc(C(=O)c2cncc(NC(=O)Cc3ccc(C(F)(F)F)cc3)c2)c2cnc(N)nc21 (single isomer, unassigned) [Example 43]
2 = CC(CO)n1cc(C(=O)c2cncc(NC(=O)Cc3ccc(F)cn3)c2)c2cnc(N)nc21 (single isomer, unassigned) [Example 40]
Exam item: Pick one: 1 or 2 . Which has the bigger IC50 number? Which one? Tell me its label.
Marked response: 2

A = CC(CO)n1cc(C(=O)c2cncc(NC(=O)Cc3ccc(Cl)cc3)c2)c2cnc(N)nc21 (single isomer, unassigned) [Example 34]
B = CC(C)(CO)n1cc(C(=O)c2cncc(NC(=O)Cn3cc(C(F)(F)F)nn3)c2)c2cncnc21
Exam item: Pick one: A or B . Which has the bigger IC50 number? Which one? Tell me its label.
Marked response: B
(B: 9 nM, A: 3.6 nM)

I = CC(C)(CO)n1cc(C(=O)c2cncc(NC(=O)Cn3ccc(C4CC4)n3)c2)c2cnc(N)nc21
II = CC(C)(CO)n1cc(C(=O)c2cncc(NC(=O)Cn3cc(C4CC4)nn3)c2)c2cnc(N)nc21
Exam item: Pick one: I or II . Which has the bigger IC50 number? Which one? Tell me its label.
Marked response: II
(II: 9.5 nM, I: 4 nM)
